Tested on: NCI-H23 lung
Assay: NCI tumour cell line growth inhibition, 48 h
# binarize TGI: threshold 6 µM inclusive, high side Satisfied, low side Not satisfied

Is it the case that CC[C@H](C)[C@@H]([C@@H](CC(=O)N1CCC[C@H]1[C@H](OC)[C@@H](C)C(=O)NCCc1ccccc1)OC)N(C)C(=O)C(NC(=O)[C@H](C(C)C)N(C)C)C(C)C (stereo partly specified) has TGI reaching or exceeding 6 µM?
Satisfied

Is it the case that "Cc1ccc2[nH]c3c(c(=O)n(C)c(=O)n3C)c2c1" has TGI reaching or exceeding 6 µM?
Satisfied

Is it the case that [N-]=[N+]=NC1C(O)C(CO)OC1n1ccc(N)nc1=O (stereo unspecified) has TGI reaching or exceeding 6 µM?
Satisfied

Is it the case that "Cc1ccccc1NC(=O)Cc1nc2ccccc2s1" has TGI reaching or exceeding 6 µM?
Satisfied

Is it the case that "Cn1nnc2c(C(N)=S)ncn2c1=O" has TGI reaching or exceeding 6 µM?
Satisfied

Is it the case that ICC1CCCO1 (stereo unspecified) has TGI reaching or exceeding 6 µM?
Satisfied

Is it the case that Cc1ccc(N)cc1[As]=[As]c1cc(N)ccc1C (stereo unspecified) has TGI reaching or exceeding 6 µM?
Not satisfied

Is it the case that "COc1cc(C(=O)/C=C/c2cc(-c3ccc4c(c3)OCO4)n[nH]2)cc(OC)c1OC" has TGI reaching or exceeding 6 µM?
Satisfied

Is it the case that "NS(=O)(=O)c1ccc(N=Nc2ccc[nH]c2=O)cc1" has TGI reaching or exceeding 6 µM?
Satisfied

Is it the case that "CN1CCN(CCCNC(=O)c2c3c(n4ccccc24)C(=O)c2ncccc2C3=O)CC1" has TGI reaching or exceeding 6 µM?
Not satisfied

Is it the case that "Oc1ccc2c(=S)cc(-c3ccc(Br)cc3)oc2c1O" has TGI reaching or exceeding 6 µM?
Satisfied
